ASSAYED SYSTEM: IDH2 R140Q (Homo sapiens, UniProt P48735, R140Q)
Sequence (P48735 40-452 R140Q): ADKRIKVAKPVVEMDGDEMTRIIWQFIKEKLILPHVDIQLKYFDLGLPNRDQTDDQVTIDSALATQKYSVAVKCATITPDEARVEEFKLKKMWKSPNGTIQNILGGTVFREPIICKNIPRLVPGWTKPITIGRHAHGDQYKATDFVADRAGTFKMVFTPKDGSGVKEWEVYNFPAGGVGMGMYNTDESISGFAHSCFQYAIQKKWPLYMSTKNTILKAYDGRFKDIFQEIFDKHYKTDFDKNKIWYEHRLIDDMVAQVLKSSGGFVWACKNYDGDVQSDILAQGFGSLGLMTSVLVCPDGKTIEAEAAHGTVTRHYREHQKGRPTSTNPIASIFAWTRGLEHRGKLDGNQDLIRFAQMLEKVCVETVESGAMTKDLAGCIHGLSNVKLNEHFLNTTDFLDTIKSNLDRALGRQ
ASSAY PROCEDURE: IDH2 R140Q enzymatic assay (cofactor depletion, similar format)
Format: biochemical
RUN CONDITIONS: read-out: Enz R140Q
pIC50: −log10 of the molar value.
READOUT TYPE: pIC50

Below, each entry is followed by its recorded pIC50 result.
# COMPOUND, pIC50
measured = [
    ("CC(C)Nc1nc(Nc2cccc(S(=O)(=O)NCC(F)(F)F)c2)nc(-c2cccc(C(F)(F)F)n2)n1 [Compound 519]", "6.00 to 7.00"),
    ("CC(C)(C)Nc1nc(Nc2cc(F)cc(F)c2)nc(-c2nccc(N)n2)n1 [Compound 479]", "6.00 to 7.00"),
    ("CNc1cccc(-c2nc(Nc3ccccc3)nc(NC(C)C)n2)n1 [Compound 331]", "6.00 to 7.00"),
    ("OC1(CNc2nc(Nc3cc(F)cc(F)c3)nc(-c3cccc(C(F)(F)F)n3)n2)CC1 [Compound 541]", "6.00 to 7.00"),
]

Entry CC(C)Nc1nc(Nc2ccnc(C(F)(F)F)c2)nc(-c2cc(F)cc(Cl)c2)n1 [Compound 647] ; pIC50 = 6.00 to 7.00

# compound Cc1ccc(Nc2nc(NC(C)C)nc(-c3ccccc3)n2)cn1 [Compound 281] ; its pIC50 = > 7.00

response.value for CC(C)Nc1nc(Nc2cccc(C(C)(C)O)c2)nc(-c2ccccc2)n1 [Compound 201] (field: pIC50) = > 7.00

The compound identified as O=C(Cc1ccccc1)Nc1nc(Nc2ccccc2)nc(-c2ccccc2)n1 [Compound 172] registered its pIC50 at > 7.00

// sample CCS(=O)(=O)c1cccc(Nc2nc(NC(C)C)nc(-c3ccccc3)n2)c1 [Compound 205] , its pIC50 was > 7.00

----------
ASSAYED SYSTEM: IDH2 R172K (Homo sapiens, UniProt P48735, R172K)
Sequence (P48735 40-452 R172K): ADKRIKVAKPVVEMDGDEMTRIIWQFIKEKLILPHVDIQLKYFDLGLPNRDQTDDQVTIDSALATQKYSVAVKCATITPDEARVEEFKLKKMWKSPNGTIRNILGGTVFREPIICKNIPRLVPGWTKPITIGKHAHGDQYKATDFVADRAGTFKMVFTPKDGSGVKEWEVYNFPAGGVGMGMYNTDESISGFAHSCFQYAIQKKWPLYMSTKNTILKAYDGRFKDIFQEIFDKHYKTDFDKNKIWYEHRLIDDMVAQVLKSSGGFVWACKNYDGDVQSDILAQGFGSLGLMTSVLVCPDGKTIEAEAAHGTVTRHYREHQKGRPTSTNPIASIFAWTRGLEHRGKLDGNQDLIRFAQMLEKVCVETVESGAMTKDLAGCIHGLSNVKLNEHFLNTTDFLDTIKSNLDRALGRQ
ASSAY PROCEDURE: IDH2 R172K enzymatic assay (NADPH cofactor depletion, diaphorase/resazurin readout)
RUN CONDITIONS: read-out: Enz R172K
READOUT TYPE: IC50

Solved cases below.
# COMPOUND, IC50
rows = [
    ("CC(Nc1nc(Nc2ccnc(C(F)(F)F)c2)nc(-c2cccc(N)n2)n1)C(F)(F)F (centres unmarked)", "< 100 nM"),
    ("CC(C)Nc1nc(Nc2ccnc(C#N)c2)nc(-c2ccccc2)n1", "100 to 1000 nM"),
    ("CC(C)Nc1nc(Nc2ccnc(Cl)c2)nc(-c2cccc(C(F)(F)F)n2)n1", "100 to 1000 nM"),
    ("c1ccc(Nc2nc(NC3CC3)nc(-c3ccccc3)n2)cc1", "100 to 1000 nM"),
]

Here CC(C)(C)Nc1nc(Nc2ccnc(C(C)(F)F)c2)nc(-c2cccc(C(C)(F)F)n2)n1 was tested on IDH2 R172K (Homo sapiens, UniProt P48735, R172K), and its IC50 came to < 100 nM

----------
System: U87MG pLVX-IDH2 R140Q-neo cells
ASSAY PROCEDURE: U87MG pLVX-IDH2 R140Q-neo cell based assay, 2-HG in media by LC-MS at 48 hours
RUN CONDITIONS: Homo sapiens, U-87 MG
READOUT TYPE: IC50

See these solved cases before continuing.
# COMPOUND, IC50
records = [
    ("CC(C)Nc1nc(Nc2ccnc(C(F)(F)F)c2)nc(-c2cccc(O)c2)n1", "< 100 nM"),
    ("c1ccc(-c2nc(Nc3ccncc3)nc(N[C@@H]3C[C@@H]4CC[C@H]3C4)n2)cc1", "< 100 nM"),
]

In plain terms, CC1(CNc2nc(Nc3ccncc3)nc(-c3ccccc3)n2)CCCO1 (stereo not shown) has a documented IC50 of 100 to 1000 nM

For record CC(C)Nc1nc(Nc2cncc(C(F)(F)F)c2)nc(-c2ccccc2)n1 the listed IC50 is < 100 nM
